Each item that follows carries a reported cytotoxicity at 70.5 h.
- Assay Details: Human HepG2 cell viability assay in 384 well format
- Type: toxicity, cell-based
- Parameters: dose 125 nL, time 70.5 hour; concentration not given beside the values
- Conditions: HepG2 cells, read-out: Inhibition
Expressed in %, but write only the number.

Task: Return reported cytotoxicity at 70.5 h. Input compound: "CSc1cc2c(cc1NC(=O)N(C)Cc1cnn(C)c1)OCCO2"
Result: 2.84

Others:
Task: Return cytotoxicity at 70.5 h (reported value) for this compound: "Cc1nc2c(c(N3CCCOCC3)n1)CCN(C(=O)N1CCCC1)CC2"
Result: -4.22

Task: Answer with reported cytotoxicity at 70.5 h of "CCCn1nc(-c2nc(COc3ccccc3)no2)ccc1=O"
Result: -7.31

Task: Could you please provide reported cytotoxicity at 70.5 h for CN(Cc1cn2ccccc2c1C#N)C1CCCN(c2cccnn2)C1 (configuration not stated) ? Thanks!
Result: -11.9

Task: Quickly give me recorded cytotoxicity at 70.5 h for Cc1cc(N2CCCC(c3nccnc3N(C)C)C2)ncn1 (configuration not stated)
Result: -2.83
